// provenance: ChEMBL document CHEMBL3046001

I'd appreciate it if you could supply zone of inhibition at 250 µg/mL values for the items below.
# Test system: Penicillium chrysogenum
# assay.summary: Antifungal activity against Penicillium chrysogenum MTCC 161 assessed as growth inhibition at 250 ug/mL after 48 hr by agar diffusion method
# Format: functional
# assay.conditions: MTCC 161, 48 h, read-out: DIZ
Include the unit after the number when you answer.

Asked: If you can, please state the reported zone of inhibition at 250 µg/mL value of O=C1CSC(c2ccccn2)N1c1nnc2c3cc(Cl)ccc3nc-2s1 (centres undefined) .
Given back: 9 mm

Asked: If you can, please state the reported zone of inhibition at 250 µg/mL value of O=C1CSC(c2cccc3ccccc23)N1c1nnc2c3cc(Cl)ccc3nc-2s1 (centres undefined) .
Given back: 8 mm

Asked: If you can, please state the reported zone of inhibition at 250 µg/mL value of O=C1CSC(c2cccc3ccccc23)N1c1nnc2c3ccccc3nc-2s1 (centres undefined) .
Given back: 8 mm

Asked: If you can, please state the reported zone of inhibition at 250 µg/mL value of O=C1CSC(c2ccccn2)N1c1nnc2c3ccccc3nc-2s1 (centres undefined) .
Given back: 9 mm

* * *

I'd appreciate it if you could supply MIC values for the items below.
# System: Micrococcus luteus
# assay.summary: Antibacterial activity against Micrococcus luteus MTCC 1538 assessed as growth inhibition after 24 hr by tube dilution method
# Assay type: functional
# assay.conditions: MTCC 1538, 24 h
Record the value in µg/mL, omitting the unit from your answer.

Asked: If you can, please state the reported MIC value of O=C1CSC(c2ccccn2)N1c1nnc2c3ccccc3nc-2s1 (configuration not stated) .
Given back: 250

Asked: If you can, please state the reported MIC value of CC1SCC(=O)N1c1nnc2c3ccccc3nc-2s1 (configuration not stated) .
Given back: 40

Asked: If you can, please state the reported MIC value of CCn1cc(C(=O)O)c(=O)c2cc(F)c(N3CCNCC3)cc21 .
Given back: 2.5

Asked: If you can, please state the reported MIC value of CC1SCC(=O)N1c1nnc2c3cc(Cl)ccc3nc-2s1 (configuration not stated) .
Given back: 150

Asked: If you can, please state the reported MIC value of O=C1CSC(c2cccc3ccccc23)N1c1nnc2c3ccccc3nc-2s1 (configuration not stated) .
Given back: 250

Asked: If you can, please state the reported MIC value of O=C1CSC(c2cccc3ccccc23)N1c1nnc2c3cc(Cl)ccc3nc-2s1 (configuration not stated) .
Given back: 150

Asked: If you can, please state the reported MIC value of O=C1CSC(c2ccccn2)N1c1nnc2c3cc(Cl)ccc3nc-2s1 (configuration not stated) .
Given back: 250

* * *

# Tested on: Escherichia coli
# assay.summary: Antibacterial activity against Escherichia coli MTCC 1573 assessed as growth inhibition at 100 ug/mL after 48 hr by agar diffusion method
# Assay type: functional
# assay.conditions: MTCC 1573, 48 h, read-out: DIZ
parameter: zone of inhibition at 100 µg/mL (mm)
Record the value in mm, omitting the unit from your answer.

Asked: If you can, please state the reported zone of inhibition at 100 µg/mL value of O=C1CSC(c2cccc3ccccc23)N1c1nnc2c3ccccc3nc-2s1 (stereo not given) .
Given back: 8

Asked: If you can, please state the reported zone of inhibition at 100 µg/mL value of O=C1CSC(c2cccc3ccccc23)N1c1nnc2c3cc(Cl)ccc3nc-2s1 (stereo not given) .
Given back: 7

Asked: If you can, please state the reported zone of inhibition at 100 µg/mL value of CC1SCC(=O)N1c1nnc2c3cc(Cl)ccc3nc-2s1 (stereo not given) .
Given back: 9

Asked: If you can, please state the reported zone of inhibition at 100 µg/mL value of O=C1CSC(c2ccccn2)N1c1nnc2c3ccccc3nc-2s1 (stereo not given) .
Given back: 7

Asked: If you can, please state the reported zone of inhibition at 100 µg/mL value of CC1SCC(=O)N1c1nnc2c3ccccc3nc-2s1 (stereo not given) .
Given back: 7

* * *

# Test system: Penicillium chrysogenum
# assay.summary: Antifungal activity against Penicillium chrysogenum MTCC 161 assessed as growth inhibition at 500 ug/mL after 48 hr by agar diffusion method
# Assay type: functional
# assay.conditions: MTCC 161, 48 h, read-out: DIZ
parameter: zone of inhibition at 500 µg/mL
Include the unit after the number when you answer.

Asked: If you can, please state the reported zone of inhibition at 500 µg/mL value of O=C1CSC(c2cccc3ccccc23)N1c1nnc2c3ccccc3nc-2s1 (stereo unspecified) .
Given back: 9 mm

Asked: If you can, please state the reported zone of inhibition at 500 µg/mL value of O=C1CSC(c2ccccn2)N1c1nnc2c3cc(Cl)ccc3nc-2s1 (stereo unspecified) .
Given back: 12 mm

Asked: If you can, please state the reported zone of inhibition at 500 µg/mL value of CC1SCC(=O)N1c1nnc2c3cc(Cl)ccc3nc-2s1 (stereo unspecified) .
Given back: 12 mm

Asked: If you can, please state the reported zone of inhibition at 500 µg/mL value of CC1SCC(=O)N1c1nnc2c3ccccc3nc-2s1 (stereo unspecified) .
Given back: 10 mm

Asked: If you can, please state the reported zone of inhibition at 500 µg/mL value of O=C1CSC(c2cccc3ccccc23)N1c1nnc2c3cc(Cl)ccc3nc-2s1 (stereo unspecified) .
Given back: 11 mm

Asked: If you can, please state the reported zone of inhibition at 500 µg/mL value of O=C1CSC(c2ccccn2)N1c1nnc2c3ccccc3nc-2s1 (stereo unspecified) .
Given back: 12 mm

* * *

# Tested on: Pseudomonas fluorescens
# assay.summary: Antibacterial activity against Pseudomonas fluorescens MTCC 2421 assessed as growth inhibition at 1250 ug/mL after 48 hr by agar diffusion method
# Format: functional
# assay.conditions: MTCC 2421, 48 h, read-out: DIZ
I'd appreciate it if you could supply zone of inhibition at 1250 µg/mL values for the items below.
Record the value in mm, omitting the unit from your answer.

Asked: If you can, please state the reported zone of inhibition at 1250 µg/mL value of CC1SCC(=O)N1c1nnc2c3ccccc3nc-2s1 (stereo unspecified) .
Given back: 24

Asked: If you can, please state the reported zone of inhibition at 1250 µg/mL value of O=C1CSC(c2ccccn2)N1c1nnc2c3cc(Cl)ccc3nc-2s1 (stereo unspecified) .
Given back: 21

Asked: If you can, please state the reported zone of inhibition at 1250 µg/mL value of O=C1CSC(c2cccc3ccccc23)N1c1nnc2c3ccccc3nc-2s1 (stereo unspecified) .
Given back: 22

Asked: If you can, please state the reported zone of inhibition at 1250 µg/mL value of CC1SCC(=O)N1c1nnc2c3cc(Cl)ccc3nc-2s1 (stereo unspecified) .
Given back: 19

Asked: If you can, please state the reported zone of inhibition at 1250 µg/mL value of O=C1CSC(c2ccccn2)N1c1nnc2c3ccccc3nc-2s1 (stereo unspecified) .
Given back: 20

Asked: If you can, please state the reported zone of inhibition at 1250 µg/mL value of O=C1CSC(c2cccc3ccccc23)N1c1nnc2c3cc(Cl)ccc3nc-2s1 (stereo unspecified) .
Given back: 24

* * *

I'd appreciate it if you could supply MIC values for the items below.
# Test system: Pseudomonas fluorescens
# assay.summary: Antibacterial activity against Pseudomonas fluorescens MTCC 2421 assessed as growth inhibition after 24 hr by tube dilution method
# Type: functional
# assay.conditions: MTCC 2421, 24 h
Record the value in µg/mL, omitting the unit from your answer.

Asked: If you can, please state the reported MIC value of O=C1CSC(c2ccccn2)N1c1nnc2c3cc(Cl)ccc3nc-2s1 (configuration not stated) .
Given back: 50

Asked: If you can, please state the reported MIC value of O=C1CSC(c2ccccn2)N1c1nnc2c3ccccc3nc-2s1 (configuration not stated) .
Given back: 50

Asked: If you can, please state the reported MIC value of O=C1CSC(c2cccc3ccccc23)N1c1nnc2c3cc(Cl)ccc3nc-2s1 (configuration not stated) .
Given back: 40

Asked: If you can, please state the reported MIC value of CCn1cc(C(=O)O)c(=O)c2cc(F)c(N3CCNCC3)cc21 [NORFLOXACIN] .
Given back: 2.5

Asked: If you can, please state the reported MIC value of CC1SCC(=O)N1c1nnc2c3cc(Cl)ccc3nc-2s1 (configuration not stated) .
Given back: 150

Asked: If you can, please state the reported MIC value of O=C1CSC(c2cccc3ccccc23)N1c1nnc2c3ccccc3nc-2s1 (configuration not stated) .
Given back: 40

Asked: If you can, please state the reported MIC value of CC1SCC(=O)N1c1nnc2c3ccccc3nc-2s1 (configuration not stated) .
Given back: 30

* * *

I'd appreciate it if you could supply zone of inhibition at 100 µg/mL values for the items below.
# System: Pseudomonas aeruginosa
# assay.summary: Antibacterial activity against Pseudomonas aeruginosa MTCC 424 assessed as growth inhibition at 100 ug/mL after 48 hr by agar diffusion method
# Type: functional
# assay.conditions: MTCC 424, 48 h, read-out: DIZ
Record the value in mm, omitting the unit from your answer.

Asked: If you can, please state the reported zone of inhibition at 100 µg/mL value of O=C1CSC(c2cccc3ccccc23)N1c1nnc2c3ccccc3nc-2s1 (stereo unspecified) .
Given back: 7

Asked: If you can, please state the reported zone of inhibition at 100 µg/mL value of CC1SCC(=O)N1c1nnc2c3ccccc3nc-2s1 (stereo unspecified) .
Given back: 8

Asked: If you can, please state the reported zone of inhibition at 100 µg/mL value of O=C1CSC(c2ccccn2)N1c1nnc2c3cc(Cl)ccc3nc-2s1 (stereo unspecified) .
Given back: 7

Asked: If you can, please state the reported zone of inhibition at 100 µg/mL value of O=C1CSC(c2ccccn2)N1c1nnc2c3ccccc3nc-2s1 (stereo unspecified) .
Given back: 7

Asked: If you can, please state the reported zone of inhibition at 100 µg/mL value of O=C1CSC(c2cccc3ccccc23)N1c1nnc2c3cc(Cl)ccc3nc-2s1 (stereo unspecified) .
Given back: 8

Asked: If you can, please state the reported zone of inhibition at 100 µg/mL value of CC1SCC(=O)N1c1nnc2c3cc(Cl)ccc3nc-2s1 (stereo unspecified) .
Given back: 7
